A collection of molecules and their measured TGI
Tested on: IGROV1 ovarian
Assay: NCI tumour cell line growth inhibition, 48 h

# example entries with known answers
[[record]]
molecule = "COc1cccc(C2c3cc4c(cc3OC(NNc3ccccc3)C2C)OCO4)c1OC (stereo not given)"
subject_of_test = "IGROV1 ovarian"
experimental_readout = "TGI"
result = "> 100 µM"

[[record]]
molecule = "CC(C)CC(=O)[O-].CC(C)CC(=O)[O-].N.N.N.N.[Co+3].[O-][Cl+3]([O-])([O-])O.[O-][Cl+3]([O-])([O-])[O-]"
subject_of_test = "IGROV1 ovarian"
experimental_readout = "TGI"
result = "> 100 µM"

[[record]]
molecule = "CC(=O)O[C@H]1[C@@H]2OC(=O)C3(CC3)C2C[C@H]2O[C@]2(C)CC/C=C(\\C)CCC[C@@H]1C (stereo not given in full)"
subject_of_test = "IGROV1 ovarian"
experimental_readout = "TGI"
result = "45.2 µM"

[[record]]
molecule = "O=C(O)c1ccccc1NS(=O)(=O)c1ccc([N+](=O)[O-])cc1"
subject_of_test = "IGROV1 ovarian"
experimental_readout = "TGI"
result = "> 100 µM"

[[record]]
molecule = "S=C1Cc2cc3ccccc3nc2-c2ccccc2N1"
subject_of_test = "IGROV1 ovarian"
experimental_readout = "TGI"
result = "65.1 µM"


Entry under review: O=C1CC2(CCC(O)(c3ccco3)C(C(=O)c3ccco3)C2)C(=O)c2ccccc2N1 (stereo not given) . Reported TGI?
> 100 µM

Any idea what its TGI is? The molecule is COc1ccc(N2C(=O)C3c4[nH]c5c(C)cccc5c4C4CCC(c5ccccc5)CC4C3C2=O)cc1 (stereo not given)
33.5 µM

Quick one: TGI of COc1c(Cl)nc2ccccc2c1N=[N+]=[N-] ?
> 100 µM

Please look up its TGI: NCC(O)CSP(=O)(O)O (stereo not given)
> 100 µM

Item COc1ccc(NC=O)c(C(=O)CCNC(C)=O)c1 has what recorded TGI?
> 100 µM
